test: Effect on calcein accumulation in multidrug-resistant human 2780AD cells at 0.25 ug/ml relative to control; type: functional, A2780 ADR
Consider the following molecules; for each one, report its Activity.
Give just the numeric value; % need not be written.

Q: Looking for the measured Activity of CC(=O)O[C@H]1[C@H](O)C2=C(C)C(=O)C[C@@H]([C@@H](OC(=O)c3ccccc3)[C@H]3[C@@]1(C)CC[C@H]1OC[C@]13O)C2(C)C , can you help?
Ans: 115

Q: Looking for the measured Activity of CC(=O)O[C@@H]1[C@@H]2C[C@H](O)C(C)=C([C@@H](OC(C)=O)[C@H](OC(C)=O)[C@]3(C)CC[C@H]4OC[C@@]4(O)[C@@H]13)C2(C)C , can you help?
Ans: 94

Q: Looking for the measured Activity of CC(=O)O[C@@H]1C2=C(C)C(=O)C[C@@H]([C@@H](OC(=O)c3ccccc3)[C@H]3[C@@](C)(CC[C@H]4OC[C@]43O)[C@H]1OC(C)=O)C2(C)C , can you help?
Ans: 97
